Biological target: UniProtKB P11712
Sequence (P11712 whole entry): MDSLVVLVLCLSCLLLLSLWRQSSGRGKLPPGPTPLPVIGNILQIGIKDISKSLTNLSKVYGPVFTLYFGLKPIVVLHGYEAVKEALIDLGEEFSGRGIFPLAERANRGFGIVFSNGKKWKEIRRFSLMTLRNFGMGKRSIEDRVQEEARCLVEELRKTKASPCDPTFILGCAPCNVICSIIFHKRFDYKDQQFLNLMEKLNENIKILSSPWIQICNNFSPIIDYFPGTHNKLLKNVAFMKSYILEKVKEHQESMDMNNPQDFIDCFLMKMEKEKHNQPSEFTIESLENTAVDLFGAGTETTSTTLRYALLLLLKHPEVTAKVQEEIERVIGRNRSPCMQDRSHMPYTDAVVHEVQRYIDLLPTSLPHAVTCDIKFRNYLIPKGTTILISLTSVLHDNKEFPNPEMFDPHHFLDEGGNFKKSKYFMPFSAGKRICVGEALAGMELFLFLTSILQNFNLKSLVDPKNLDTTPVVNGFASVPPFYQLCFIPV
Experiment: Inhibition of CYP2C9 (unknown origin) assessed as remaining activity at 10 uM relative to control
Assay type: ADME
Conditions: read-out: Activity
Recorded metric: activity at 10 µM (%)
Give the value, in units of %, as a plain number.

So, CN1Cc2c(ncnc2N2CCC(C)(CNS(N)(=O)=O)CC2)NC1=O ? Its activity at 10 µM was 89.4

----------
Test: Metabolic stability in rat liver microsomes assessed as compound remaining at 1 uM after 30 mins
Format: ADME, Microsome
Conditions: read-out: Stability
Recorded metric: remaining at 0.5 h, 1 µM (%)
Give the value, in units of %, as a plain number.

CN1Cc2c(ncnc2N2CCC(C)(CNS(N)(=O)=O)CC2)NC1=O; 82.3

Moving on to the next compound.
So, CN1Cc2c(-c3ccc(CNS(N)(=O)=O)c(F)c3)ccnc2NC1=O ? Its remaining at 0.5 h, 1 µM was 86.7
